# Test system: motor neurons induced to differentiate from iPS cells derived from amyotrophic lateral sclerosis patient
# Protocol details: Hyperexcitation suppression test using motor neurons induced to differentiate from iPS cells derived from amyotrophic lateral sclerosis patient
# Format: cell-based, human
# Run conditions: Homo sapiens, Neuron; 10 μM; read-out: inhibitory activity (%)
Would you mind labelling by inhibition at 10 µM? At or over 20% is 1.0, under is 0.0.

Quick check, inhibition at 10 µM >= 20%? CN(C)Cc1ccc(Nc2nc3ccccc3c(=O)n2-c2ccccc2)cc1 [Example 139] 0.0

Threshold query (inhibition at 10 µM >= 20%) on O=c1c2cc(F)ccc2nc(Nc2ccccc2)n1-c1cncc(F)c1 [Example 86] 1.0

Please indicate if the recorded inhibition at 10 µM for O=c1c2cc(F)ccc2nc(Nc2ccc(F)cc2Cl)n1-c1cccnc1 [Example 80] meets or exceeds 20%. 1.0

API: above_or_equal(metric=inhibition at 10 µM, cutoff=20%) for item O=c1c2ccccc2nc(Nc2ccc(CN3CCC3)cc2)n1-c1ccccc1 [Example 140] 0.0

Hi team, for O=c1c2cc(F)ccc2nc(Nc2ccc(CO)cc2)n1-c1ccccn1 [Example 146] , is the recorded inhibition at 10 µM at or above 20%? 0.0

Entry O=c1c2cc(Cl)ccc2nc(Nc2ccccc2)n1-c1ccnnc1 [Example 55] : is its inhibition at 10 µM no less than 20%? 0.0

Reported inhibition at 10 µM reaches at least 20% for CN(C)c1cccc(-n2c(Nc3ccccc3)nc3ccc(Cl)cc3c2=O)c1 [Example 61] ? 1.0

Tell me whether inhibition at 10 µM is at least 20% here: CN(C)Cc1ccc(Nc2nc3ccc(F)cc3c(=O)n2-c2cccnc2)cc1 [Example 155] 0.0

Does O=c1c2cccc(Cl)c2nc(Nc2ccc(F)cc2Cl)n1-c1ccccc1 [Example 129] have a reported inhibition at 10 µM of at least 20%? 0.0

---

# System: rat primary culture neurons
# Protocol details: Nerve hyperexcitation suppressing activity using rat primary culture neurons (4-aminopyridine-induced calcium oscillation)
# Format: cell-based
# Run conditions: Rattus norvegicus, Neuron; 0.1 μM; read-out: inhibition rate (%) at a certain concentration
Provide the recorded inhibition at 0.1 µM for the entries that follow.
The answer is to be given in %; state only the numeric part.

Any idea what inhibition at 0.1 µM was measured for `O=c1c2cc(F)ccc2nc(Nc2ccc3c(c2)COC3)n1-c1ccccc1` ? 78

# input molecule: `COCCN(C)Cc1ccc(Nc2nc3ccc(F)cc3c(=O)n2-c2ccccc2)cc1` ; wanted: its inhibition at 0.1 µM 35

What value of inhibition at 0.1 µM has been recorded for this entry: `COC(=O)c1ccc(Nc2nc3ccc(Cl)cc3c(=O)n2-c2ccccc2)cc1` 86

Quick check: inhibition at 0.1 µM of `O=c1c2cc(F)ccc2nc(Nc2ccc(CN3CCC3)cc2)n1-c1ccccn1` ? 7

Sample `O=c1c2cc(Cl)ccc2nc(Nc2ccccc2)n1-c1cccc(CO)c1` — what was its inhibition at 0.1 µM? 59

Given the molecule `CC1(O)CN(Cc2ccc(Nc3nc4ccc(F)cc4c(=O)n3-c3ccccc3)cc2)C1` , what is its reported inhibition at 0.1 µM? 83

Quick check: inhibition at 0.1 µM of `CCN(C)Cc1ccc(Nc2nc3ccc(Cl)cc3c(=O)n2-c2ccccc2)cc1` ? 19

I would be grateful if you could share the reported inhibition at 0.1 µM for `COc1ccccc1-n1c(Nc2ccccc2)nc2ccc(Cl)cc2c1=O` . 50

If you can, please state the reported inhibition at 0.1 µM value of `CN(C)Cc1ccc(Nc2nc3ccc(F)cc3c(=O)n2-c2ccccn2)cc1` . 22

---

# System: motor neurons induced to differentiate from iPS cells derived from amyotrophic lateral sclerosis patient
# Protocol details: Hyperexcitation suppression test using motor neurons induced to differentiate from iPS cells derived from amyotrophic lateral sclerosis patient
# Assay type: cell-based, human
# Run conditions: Homo sapiens, Neuron; 10 μM; read-out: inhibitory activity (%)
The threshold is inclusive: inhibition at 10 µM of exactly 4% counts as satisfied; values below receive not satisfied.

// inclusive: inhibition at 10 µM at least 4%? input: CC1(O)CN(Cc2ccc(Nc3nc4ccc(F)cc4c(=O)n3-c3ccccc3)cc2)C1 [Example 111] not satisfied

Would you say O=c1c2cc(C(F)(F)F)ccc2nc(Nc2ccc(Cl)cc2)n1-c1ccccc1 [Example 176] shows inhibition at 10 µM at minimum 4%? satisfied

Hi, just wondering whether O=c1c2cc(Cl)ccc2nc(Nc2ccc(CO)cc2)n1-c1ccccn1 [Example 157] shows inhibition at 10 µM of 4% or higher. satisfied

Does the molecule CN(C)Cc1ccc(Nc2nc3ccccc3c(=O)n2-c2ccccn2)cc1 [Example 144] have recorded inhibition at 10 µM that is 4% or more? not satisfied

Dear colleague, could you confirm whether N#Cc1ccc(-n2c(Nc3ccccc3)nc3ccc(Cl)cc3c2=O)cc1 [Example 57] has inhibition at 10 µM at or above 4%? satisfied

---

# System: motor neurons induced to differentiate from iPS cells derived from amyotrophic lateral sclerosis patient
# Protocol details: Hyperexcitation suppression test using motor neurons induced to differentiate from iPS cells derived from amyotrophic lateral sclerosis patient
# Type: cell-based, human
# Run conditions: Homo sapiens, Neuron; 10 μM; read-out: inhibitory activity (%)
# cutoff 20% applies to inhibition at 10 µM; >= gives y, < gives n

Reported inhibition at 10 µM reaches at least 20% for `CN(C)Cc1ccc(Nc2nc3ccccc3c(=O)n2-c2cccnc2)cc1` ? n

Does the reported inhibition at 10 µM for `O=c1c2c(Cl)cccc2nc(Nc2ccccc2)n1-c1cccnc1` fall at or above the 20% mark? n

Is inhibition at 10 µM for `O=c1c2ccccc2nc(Nc2ccccc2)n1-c1ccccc1C(F)(F)F` at or above 20%? y

Evaluate `O=c1c2cc(F)ccc2nc(Nc2ccc(CN3CC(O)C3)cc2)n1-c1ccccc1` : inhibition at 10 µM at minimum 20%? n

// inclusive: inhibition at 10 µM at least 20%? input: `N#Cc1ccc(Nc2nc3ccc(Cl)cc3c(=O)n2-c2cccnc2)cc1` y

Identify whether the reported inhibition at 10 µM of the following molecule is 20% or greater: `O=c1c2cc(Cl)ccc2nc(Nc2ccccc2)n1-c1ncccc1F` y

In plain terms: is recorded inhibition at 10 µM at least 20% for `CN(C)Cc1ccc(Nc2nc3ccc(F)cc3c(=O)n2-c2ccccn2)cc1` ? n

Evaluate `COc1cccc(Nc2nc3ccc(Cl)cc3c(=O)n2-c2ccccc2)c1` : inhibition at 10 µM at minimum 20%? y

Answer whether inhibition at 10 µM of `COc1ccc2nc(Nc3ccccc3)n(-c3cccnc3)c(=O)c2c1` is greater than or equal to 20%. n

Record `O=c1c2ccccc2nc(Nc2ccc(CO)cc2)n1-c1ccccc1` ; criterion: inhibition at 10 µM no lower than 20%. Met? n

Textbook exercise: given the entry `O=c1c2ccccc2nc(Nc2ccccc2)n1-c1ccccc1F` , state whether its inhibition at 10 µM is greater than or equal to 20%. y

Determine whether measured inhibition at 10 µM meets or exceeds 20% for `O=c1c2cc(F)ccc2nc(Nc2ccc(CN3CCC3)cc2)n1-c1ccccn1` n

Please check the record `O=c1c2cccc(Cl)c2nc(Nc2ccccc2Cl)n1-c1ccccc1` and state if its inhibition at 10 µM is at or above 20%. n

// inclusive: inhibition at 10 µM at least 20%? input: `O=c1c2ccccc2nc(Nc2ccc(CO)cc2)n1-c1ccccn1` n

Is it the case that `O=c1c2cc(F)ccc2nc(Nc2ccccc2)n1-c1ccncn1` has inhibition at 10 µM reaching or exceeding 20%? n

Assess whether reported inhibition at 10 µM for `O=c1c2cc(F)ccc2nc(Nc2ccc(CN3CCC3)cc2)n1-c1cccnc1` sits at 20% or higher. n

Reported inhibition at 10 µM at or above 20%? `O=c1c2ccccc2nc(Nc2ccc(CN3CCC3)cc2)n1-c1ccccn1` n

Exam item: decide whether the reported inhibition at 10 µM for `O=c1c2cc(Cl)ncc2nc(Nc2ccccc2)n1-c1ccccc1` is at least 20%. y

---

# Tested on: rat primary culture neurons
# Protocol details: Nerve hyperexcitation suppressing activity using rat primary culture neurons (4-aminopyridine-induced calcium oscillation)
# Format: cell-based
# Run conditions: Rattus norvegicus, Neuron; 1 μM; read-out: inhibition rate (%) at a certain concentration
Reported endpoint: inhibition at 1 µM
Quote the value and follow it with the unit of measurement.

# get_value(readout='inhibition at 1 µM', item= COc1ccc(Nc2nc3ccc(Cl)cc3c(=O)n2-c2ccccc2)c(Cl)c1 [Example 20] ) 63%

Name the recorded inhibition at 1 µM for CN(C)c1ccc(Nc2nc3ccc(Cl)cc3c(=O)n2-c2ccccc2)cc1 [Example 131] . 86%

// returns reported inhibition at 1 µM for input Cc1ccc(Nc2nc3ccc(Cl)cc3c(=O)n2-c2ccccc2)c(Cl)c1 [Example 18] 85%

inhibition at 1 µM for N#Cc1ccc(Nc2nc3ccc(Cl)cc3c(=O)n2-c2ccccc2)cc1 [Example 9] ? 83%
